Some binders, each annotated with its measured peptide exchange yield.
# testTarget: T1, HLA-B*07:02 (human)
# T1 construct: also called peptide-receptive MHC molecules
# assayOverview: UV-exchange b2m ELISA; exchange-yield grade
parameter: peptide exchange yield

INSERT INTO measurements (binder, result) VALUES
  ('EPVTSSLPNF', '20 to 50%'),
  ('SPSPVSSTL', '50 to 75%'),
  ('YPLRGSSIFGL', '50 to 75%'),
  ('FPRLVGPDF', '50 to 75%'),
  ('LYVDGFTHW', '20 to 50%'),
  ('SPSVSSNTY', '20 to 50%'),
  ('SPTHVTQSL', '50 to 75%'),
  ('APLKLSRTPA', '50 to 75%');
